CC50 at 72 h reference
- experimental-protocol: General cytotoxicity on HepG2 cells
- Type: cell-based
- condition-info: human, 72 h incubation

{"columns": ["mol-smiles", "CC50 at 72 h"],
 "data": [
  ["COCCn1cc(-c2ccc(-c3cnc(N)c4ncc(C(=O)NC5CC5)cc34)cc2)cn1", "31.8 µM"],
  ["CN1CCN(C(=O)Cn2cc(-c3ccc(-c4cnc(N)c5ncc(C(=O)N6CCN(C)CC6)cc45)cc3)cn2)CC1", "> 100 µM"],
  ["CN1CCN(C(=O)Cn2cc(-c3ccc(-c4cnc(N)c5ncc(C(=O)N6CCC6)cc45)cc3)cn2)CC1", "~90 µM"],
  ["CN(C)C(=O)Cn1cc(-c2ccc(-c3cnc(N)c4ncc(C(=O)NCC5CC5)cc34)cc2)cn1", "68.1 µM"],
  ["CN1CCN(C(=O)c2cnc3c(N)ncc(-c4ccc(-c5cnn(CC(=O)N(C)C)c5)cc4)c3c2)CC1", "> 100 µM"],
  ["CN(C)C(=O)Cn1cc(-c2ccc(-c3cnc(N)c4ncc(C(=O)N5CCC5)cc34)cc2)cn1", "> 100 µM"],
  ["CN1CCN(C(=O)Cn2cc(-c3ccc(-c4cnc(N)c5ncc(C(=O)NC6CC6)cc45)cc3)cn2)CC1", "> 100 µM"],
  ["CN1CCN(C(=O)Cn2cc(-c3ccc(-c4cnc(N)c5ncc(C(=O)NCC6CC6)cc45)cc3)cn2)CC1", "65.3 µM"],
  ["COCCN(C)C(=O)c1cnc2c(N)ncc(-c3ccc(-c4cnn(CC(=O)N5CCN(C)CC5)c4)cc3)c2c1", "> 100 µM"],
  ["COCCN(C)C(=O)c1cnc2c(N)ncc(-c3ccc(-c4cnn(CCOC)c4)cc3)c2c1", "~90 µM"],
  ["COCCn1cc(-c2ccc(-c3cnc(N)c4ncc(C(=O)N5CCN(C)CC5)cc34)cc2)cn1", "> 100 µM"],
  ["CN(C)C(=O)Cn1cc(-c2ccc(-c3cnc(N)c4ncc(C(=O)NC5CC5)cc34)cc2)cn1", "> 100 µM"],
  ["COCCN(C)C(=O)c1cnc2c(N)ncc(-c3ccc(-c4cnn(CC(=O)N(C)C)c4)cc3)c2c1", "> 100 µM"],
  ["COCCn1cc(-c2ccc(-c3cnc(N)c4ncc(C(=O)N5CCC5)cc34)cc2)cn1", "~90 µM"],
  ["COCCn1cc(-c2ccc(-c3cnc(N)c4ncc(C(=O)NCC5CC5)cc34)cc2)cn1", "17.4 µM"]
]}
